test system: C. albicans SN250, C. albicans, C. krusei, C. glabrata, C. tropicalis, A. fumigatus 91, 1163, 1100; experiment: Average MIC over the tested strains; type: cell-based; conditions: Table 12, C16 amides of C2'epiAmB
Measured parameter: Average MIC (µM)

Compound	Units	Test value
CC1C=CC=CC=CC=CC=CC=CC=CC(OC2OC(C)C(O)C(N)C2O)CC2OC(O)(CC(O)CC(O)C(O)CCC(O)CC(O)CC(=O)OC(C)C(C)C1O)CC(O)C2C(=O)NC1CC1 (stereo not drawn)	µM	3.063
CC1C=CC=CC=CC=CC=CC=CC=CC(OC2OC(C)C(O)C(N)C2O)CC2OC(O)(CC(O)CC(O)C(O)CCC(O)CC(O)CC(=O)OC(C)C(C)C1O)CC(O)C2C(=O)NCCF (stereo not drawn)	µM	0.844
CC1C=CC=CC=CC=CC=CC=CC=CC(OC2OC(C)C(O)C(N)C2O)CC2OC(O)(CC(O)CC(O)C(O)CCC(O)CC(O)CC(=O)OC(C)C(C)C1O)CC(O)C2C(=O)NCCO (stereo not drawn)	µM	1.031
